Origin of the recorded values: PubChem BioAssay (NCI)

Reported values of TGI for individual entries
test system: SNB-19 CNS; experiment: NCI tumour cell line growth inhibition, 48 h

Examples from the recorded data:
Query string: Param item = CC[C@]1(Cc2ccc(OC)c(OC)c2)C=[N+]([O-])O[C@H](OC2CCCC2(c2ccccc2)c2ccccc2)[C@@H]1OC(=O)C(C)(C)C (stereo partly specified) ; retrieve measured TGI.
Result string: 30.3 µM

Query string: Repeat with CC(=O)O[C@H]1C(=O)[C@@]2(C)[C@H]([C@H](OC(=O)c3ccco3)[C@]3(O)C[C@H](OC(=O)[C@H](O)[C@@H](NC(=O)c4ccccc4)c4ccccc4)C(C)=C1C3(C)C)[C@]1(OC(C)=O)CO[C@@H]1C[C@@H]2O
Result string: > 25 µM

Query string: What would you report for [Cl-].[Gd+3].[O-]/N=C(\c1ccccc1)c1ccccn1.[O-]/N=C(\c1ccccc1)c1ccccn1.[O-]/N=C(\c1ccccc1)c1ccccn1 ?
Result string: > 100 µM

Query string: Then O=C(O)C1(C(O)c2ccccc2)SCCCS1 (stereo unspecified) ?
Result string: > 10 µM

Query string: Same read-out for COc1cc(OC)cc(-c2ccc(-c3ccc(C(=N)N)cn3)s2)c1 ?
Result string: 3.59 µM

New cases:
Query string: Report TGI for Nc1ncnc2c1nc(Cl)n2C1OC(CO)C(O)C1O (stereo unspecified) please.
Result string: > 100 µM
